# Assay summary: small-molecule binders of probe aNOTCH2, primary screen, biochemical, small-molecule microarray, 635/667 nm fluorescence (AID 1121);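 note: score merges feature fluorescence read at 667 nm with its signal to noise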
# Setup conditions: higher = more signal
Measure: composite z-score
Returns: the value as a bare number; no unit string appended.

INSERT INTO assay_data (compound, obs_value) VALUES
  ('C=C(CCCC)/C(=C/C[C@@H](OC(=O)c1ccncc1)c1ccccc1OCCO)c1cnc2ccccc2c1', -0.105);

**Query** composite z-score for O=C1NC(=O)C2C1C=CC(C(O)c1ccco1)N2Nc1ccccn1 (centres undefined) ?
**Result** -0.0567

**Query** composite z-score for `Cc1ccc(S[C@]2(C(=O)O)CC(=O)N(Cc3cc(C(F)(F)F)cc(C(F)(F)F)c3)[C@@H]2c2ccc(CO)cc2)cc1` ?
**Result** -0.154

**Query** composite z-score for `COCCOC(=O)N1C(=O)[C@@]2(c3cc(C#Cc4ccc(OC)cc4)ccc31)[C@H](c1ccc(O)cc1)N1[C@H](c3ccccc3)[C@H](c3ccccc3)OC(=O)[C@H]1[C@@H]2C(=O)N1CCCCCCC1` ?
**Result** -0.131
